From: patent US20250197437A1

- protocol: Water solubility test of cannabinoid:glucosamine complexes and pure cannabinoids (HPLC of supernatant)
- Format: physicochemical
- test conditions: water, thermodynamic from solid
- Procedure: If considered necessary, sonication can also be applied. Afterwards, the solution is centrifuged at 3.000 g for 3 minutes and the supernatant is transferred to a HPLC vial. Concentration of dissolved cannabinoids is determined by analysis on an Agilent 1260 Infinity (Santa Clara, CA, USA) HPLC system. The chromatographic method is adapted from the literature (Križman, 2019). […] The concentration of cannabinoids is determined using an external standard method. […]
quantity measured: solubility

Query block: Please look up its solubility: `CCCCCc1cc(O)c(C/C=C(\C)CCC=C(C)C)c(O)c1`
Result block: < 1 µg/mL
